assayed_target: recombinant human TFPI (tissue factor pathway inhibitor) (human, UniProt P10646 29-304)
assay_method_text: cell-based or functional assay
observable: FXa assay OD, 2.5 nM Ab, 10 nM TFPI

binder	reported_result
clone 1001 (antibody, V domains shown) VH: EVQLVESGGGLVKPGGSLRLSCAASGFTFSSYAMNWVRQAPGKGLEWVSTITTGGSYTYYADSVDGRFTISRDNAKNSLYLQMNSLRAEDTAVYYCARQDGNFLMDYWGQGTLVTVSS VL: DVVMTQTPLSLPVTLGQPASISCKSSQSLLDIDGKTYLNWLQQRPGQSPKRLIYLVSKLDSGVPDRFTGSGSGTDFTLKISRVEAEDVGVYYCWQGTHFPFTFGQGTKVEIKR	0.031
